Value source: PubChem BioAssay (NCI)

test_summary: NCI Yeast Anticancer Drug Screen. Data for the bub3 strain (AID 167)
study_conditions: S. cerevisiae bub3 mutant strain, at 50.0 µM (retest, dose inferred, filed as 5.0), stronger effect = higher value
Method: Growth inhibition of yeast strains with defined genetic alterations is measured as a screen for potential anti-cancer activity. Selected strains with alterations in DNA damage repair or cell cycle control were exposed to compounds and growth inhibition was measured relative to vehicle treated controls. The strain used in this assay is bub3
This is part of a sample that, as a whole, favours compounds with a hit. Of some 79,000 tested, about 15% had one in any assay.
Assign Y to entries whose growth inhibition meets or exceeds 40%; assign N to the rest.

Examples with answers:
# compound, class_label
data = [
    ("Cc1ccc(N2CC(O)CN(c3ccc(C)cc3)CC(O)C2)cc1 (stereo unspecified)", "N"),
    ("CC1(C)CC(=O)C(C(c2ccc3c(c2)OCO3)N2CCOCC2)C(=O)C1 (stereo unspecified)", "N"),
    ("CCCCN(C)N=Nc1c(C(N)=O)n[nH]c1C(C)C", "N"),
]

Textbook exercise: given the entry Nc1ncnc2c1ncn2C1OCC(O)C1O (stereo unspecified) , state whether its growth inhibition is greater than or equal to 40%. Y

Is it the case that `Cc1ccccc1NC(=O)CSC(N)=O` has growth inhibition reaching or exceeding 40%? Y

Please check the record C=CCN1CCC(OC(=O)C(O)(C#CC)C2CCCC2)CC1 (stereo unspecified) and state if its growth inhibition is at or above 40%. Y
